Reference for the values: BindingDB's records for doi:10.1016/s0960-894x(01)00219-0

- measurement-description: Inhibition of erbB2 overexpressing BT 474 cell proliferation
measured-quantity: IC50

>>> df
                                  structure  measured_quantity  reported
0  CN(C)c1cc2c(Nc3ccc4c(cnn4Cc4ccccc4)c3)ncnc2cn1               IC50     70 nM

====

- measurement-description: Inhibition of c-erbB-2 overexpressing HB4a cell proliferation
Listed here: items and their measured IC50.
measured-quantity: IC50 (µM)

>>> print(df.to_string())
                                  structure  reported
0  c1ccc(Cc2nc3ccc(Nc4ncnc5ccccc45)cc3[nH]2)cc1       1.3
1  c1ccc(Cn2cnc3ccc(Nc4ncnc5ccccc45)cc32)cc1        21
2  c1ccc(Cn2ccc3cc(Nc4ncnc5ccccc45)ccc32)cc1       1.3
3  Nc1cc2c(Nc3ccc4nc(Cc5ccccc5)[nH]c4c3)ncnc2cn1      1.86
4  COc1cc2ncnc(Nc3ccc4c(ccn4Cc4ccccc4)c3)c2cc1OC      0.35
5  COc1cc2ncnc(Nc3ccc4nn(Cc5ccccc5)cc4c3)c2cc1OC       3.1
6  COc1cc2ncnc(Nc3ccc4nc(Cc5ccccc5)[nH]c4c3)c2cc1OC       1.1
7  Nc1cc2c(Nc3ccc4c(cnn4Cc4ccccc4)c3)ncnc2cn1     0.097
8  COc1cc2ncnc(Nc3ccc4c(cnn4Cc4ccccc4)c3)c2cc1OC      0.29
9  c1ccc(Cn2cnc3cc(Nc4ncnc5ccccc45)ccc32)cc1        27

====

- target-of-assay: Receptor tyrosine-protein kinase erbB-2 (Rattus norvegicus)
- Sequence (P06494 whole entry): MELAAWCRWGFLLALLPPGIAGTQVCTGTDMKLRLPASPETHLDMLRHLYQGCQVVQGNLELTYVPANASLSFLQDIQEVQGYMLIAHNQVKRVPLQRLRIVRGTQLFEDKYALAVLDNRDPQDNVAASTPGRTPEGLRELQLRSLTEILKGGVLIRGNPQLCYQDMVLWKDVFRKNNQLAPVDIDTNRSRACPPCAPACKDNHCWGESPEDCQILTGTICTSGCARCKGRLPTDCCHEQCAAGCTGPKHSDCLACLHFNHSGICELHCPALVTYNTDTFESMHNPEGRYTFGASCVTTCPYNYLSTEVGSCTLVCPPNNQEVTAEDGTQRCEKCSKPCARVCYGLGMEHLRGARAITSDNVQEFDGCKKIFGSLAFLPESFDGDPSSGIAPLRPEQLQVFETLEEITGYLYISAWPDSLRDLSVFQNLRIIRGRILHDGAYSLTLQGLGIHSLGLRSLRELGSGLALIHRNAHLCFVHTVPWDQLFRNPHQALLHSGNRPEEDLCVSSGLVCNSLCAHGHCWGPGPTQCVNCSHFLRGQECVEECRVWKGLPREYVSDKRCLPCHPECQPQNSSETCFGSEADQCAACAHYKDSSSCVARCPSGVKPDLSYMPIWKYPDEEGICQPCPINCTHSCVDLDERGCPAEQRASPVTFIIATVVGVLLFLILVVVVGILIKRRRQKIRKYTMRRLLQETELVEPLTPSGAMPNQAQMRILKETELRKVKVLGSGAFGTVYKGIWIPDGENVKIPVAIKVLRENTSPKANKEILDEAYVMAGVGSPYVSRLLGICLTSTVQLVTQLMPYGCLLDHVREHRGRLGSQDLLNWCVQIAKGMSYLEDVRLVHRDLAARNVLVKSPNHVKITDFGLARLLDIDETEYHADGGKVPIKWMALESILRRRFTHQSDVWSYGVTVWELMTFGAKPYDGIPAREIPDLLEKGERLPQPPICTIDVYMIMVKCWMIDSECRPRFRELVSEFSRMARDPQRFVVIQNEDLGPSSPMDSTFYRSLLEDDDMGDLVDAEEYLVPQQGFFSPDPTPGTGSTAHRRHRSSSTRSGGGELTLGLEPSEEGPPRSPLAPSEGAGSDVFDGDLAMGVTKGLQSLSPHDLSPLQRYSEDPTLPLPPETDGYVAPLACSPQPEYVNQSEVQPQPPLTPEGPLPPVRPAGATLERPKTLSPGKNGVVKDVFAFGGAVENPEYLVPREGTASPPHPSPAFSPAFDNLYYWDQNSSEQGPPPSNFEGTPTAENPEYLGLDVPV
pIC50: −log10 of the molar value.
measured-quantity: pIC50

                                  structure  measured_quantity  reported
0  CN(C)c1cc2c(Nc3ccc4c(cnn4Cc4ccccc4)c3)ncnc2cn1              pIC50      6.41

====

- measurement-description: Inhibition of erbB2 overexpressing HB4a.e5.2 cell proliferation
pIC50: −log10 of the molar value.
measured-quantity: pIC50

                                  structure  reported
0  CN(C)c1cc2c(Nc3ccc4c(cnn4Cc4ccccc4)c3)ncnc2cn1      7.01
